Assay: [3H]Thymidine incorporation assay (cell toxicity)
Conditions: human
measure: CC50 at 72 h

Please review the entries below; each comes with its answer.
[
  {
    "compound": "CO[C@@H](C)[C@@H](C(=O)N(C)C)N(c1cc(C#CC(C)(C)C)sc1C(=O)O)C(=O)[C@H]1CC[C@H](C)CC1",
    "resultValue": "> 100 µM"
  },
  {
    "compound": "COC1CN(C(=O)C[C@H](C)N(c2cc(C#CC(C)(C)C)sc2C(=O)O)C(=O)[C@H]2CC[C@H](C)CC2)C1",
    "resultValue": "> 100 µM"
  },
  {
    "compound": "CC1CCC(C(=O)N(c2cc(C#CC(C)(C)C)sc2C(=O)O)[C@H]2CCN(C)C2=O)CC1 (single isomer, unassigned)",
    "resultValue": "> 100 µM"
  }
]

Query :: // lookup CC50 at 72 h for CC1CN(C(=O)[C@H](C)N(c2cc(C#CC(C)(C)C)sc2C(=O)O)C(=O)[C@H]2CC[C@H](C)CC2)CCO1 (stereo partly drawn)
Result :: > 100 µM

Query :: // lookup CC50 at 72 h for CC(C)(C)C#Cc1cc(N(CC(=O)N2CCOCC2)C(=O)c2ccc(Cl)cc2)c(C(=O)O)s1
Result :: > 100 µM

Query :: // lookup CC50 at 72 h for COC1CCCN(C(=O)[C@H](C)N(c2cc(C#CC(C)(C)C)sc2C(=O)O)C(=O)[C@H]2CC[C@H](C)CC2)C1 (stereo partly drawn)
Result :: > 100 µM

Query :: // lookup CC50 at 72 h for C[C@@H](O)[C@@H](C(=O)N1CCOCC1)N(c1cc(C#CC(C)(C)C)sc1C(=O)O)C(=O)[C@H]1CC[C@H](C)CC1
Result :: > 100 µM

Query :: // lookup CC50 at 72 h for CC[C@@H](C(=O)N1CC2CC1CO2)N(c1cc(C#CC(C)(C)C)sc1C(=O)O)C(=O)[C@H]1CC[C@H](C)CC1 (stereo partly drawn)
Result :: > 100 µM

Query :: // lookup CC50 at 72 h for CC1CCC(C(=O)N(CCC(=O)N(C)C)c2cc(C#CC(C)(C)C)sc2C(=O)O)CC1 (stereo not drawn)
Result :: > 100 µM

Query :: // lookup CC50 at 72 h for CN1CCC[C@H](N(C(=O)c2ccc(Cl)cc2Cl)c2cc(C#CC(C)(C)C)sc2C(=O)O)C1=O
Result :: > 100 µM

Query :: // lookup CC50 at 72 h for CCC#Cc1cc(N(CC(=O)N2CCOCC2)C(=O)[C@H]2CC[C@H](C)CC2)c(C(=O)O)s1
Result :: > 100 µM

Query :: // lookup CC50 at 72 h for CN(C(=O)CN(c1cc(C#CC(C)(C)C)sc1C(=O)O)C(=O)[C@H]1CC[C@H](C)CC1)C1CCOCC1
Result :: > 100 µM

Query :: // lookup CC50 at 72 h for CN(C)C(=O)[C@H](CO)N(c1cc(C#CC(C)(C)C)sc1C(=O)O)C(=O)[C@H]1CC[C@H](C)CC1
Result :: > 100 µM

Query :: // lookup CC50 at 72 h for COCC(C(=O)N(C)C)N(C(=O)C1CCC(C)CC1)c1cc(C#CC(C)(C)C)sc1C(=O)O (single isomer, unassigned)
Result :: > 100 µM

Query :: // lookup CC50 at 72 h for CN1CCC[C@H](N(c2cc(C#CC(C)(C)C)sc2C(=O)O)C(=O)[C@H]2CC[C@H](C)CC2)C1=O
Result :: > 100 µM

Query :: // lookup CC50 at 72 h for CN1CCOC[C@H](N(C(=O)c2ccc(Cl)cc2Cl)c2cc(C#CC(C)(C)C)sc2C(=O)O)C1=O
Result :: > 100 µM

Query :: // lookup CC50 at 72 h for CNC(=O)CN(c1cc(C#CC(C)(C)C)sc1C(=O)O)C(=O)[C@H]1CC[C@H](C)CC1
Result :: 10 to 100 µM

Query :: // lookup CC50 at 72 h for COC[C@@H](C(=O)N1CCCC1)N(C(=O)C1CCC(C)CC1)c1cc(C#CC(C)(C)C)sc1C(=O)O (stereo partly drawn)
Result :: 10 to 100 µM

Query :: // lookup CC50 at 72 h for C[C@@H](C(=O)NC1CCOCC1)N(c1cc(C#CC(C)(C)C)sc1C(=O)O)C(=O)[C@H]1CC[C@H](C)CC1
Result :: > 100 µM
